ASSAY_TARGET: UniProtKB P19099
Sequence (P19099 25-503): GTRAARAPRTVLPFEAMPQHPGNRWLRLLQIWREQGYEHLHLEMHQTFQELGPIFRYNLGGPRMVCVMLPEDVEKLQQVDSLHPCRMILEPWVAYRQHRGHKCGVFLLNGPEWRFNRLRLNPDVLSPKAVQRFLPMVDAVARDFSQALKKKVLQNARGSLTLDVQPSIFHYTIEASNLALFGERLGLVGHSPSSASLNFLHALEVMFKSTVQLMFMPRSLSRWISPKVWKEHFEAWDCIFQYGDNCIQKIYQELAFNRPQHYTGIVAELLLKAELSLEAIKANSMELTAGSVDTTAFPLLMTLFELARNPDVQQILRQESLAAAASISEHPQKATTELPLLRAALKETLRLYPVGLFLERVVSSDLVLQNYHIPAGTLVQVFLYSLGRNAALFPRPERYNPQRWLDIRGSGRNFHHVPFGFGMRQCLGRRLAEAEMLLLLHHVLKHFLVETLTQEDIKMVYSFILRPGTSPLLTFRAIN
MEASUREMENT_PROTOCOL: Inhibition of hCYP11B2 in transfected V79 cells
CONDITION_SUMMARY: hamster V79 cells expressing human CYP11B2; substrate 11-deoxycorticosterone 200 nM
Note to self: use Criterion met only for IC50 readings below 10 nM; a reading exactly at 10 nM still gets Criterion not met.

Before answering, review these 4 worked examples.
COc1ccc(C(=O)N2CCOc3c(-c4ccc(C#N)cc4)cncc32)cc1 Criterion not met
COc1ccc(S(=O)(=O)N2CCSc3c(-c4ccsc4)cncc32)cc1 Criterion met
O=C(c1ccc(F)cc1)n1ccc2c(-c3ccn4ccnc4c3)cncc21 Criterion not met
CN1C(=O)CCc2cc(-c3cncc4c3SCCN4S(=O)(=O)c3ccc(C#N)cc3)cc(F)c21 Criterion not met

Moving on to another molecule below.
IN: is_below(IC50, 10 nM) for N#Cc1ccc(-c2cncc3ncn(C4CC4)c23)cc1 ?
OUT: Criterion not met

Where these numbers come from: patent US20260092074A1
